Ref: PubChem BioAssay

Collected composite z-score values appear next to each entry.
target: Follistatin (Homo sapiens) (UniProt P19883); assay: FST protein binding to printed compounds – biochemical, small-molecule microarray, 635/667 nm fluorescence, primary screen (AID 1132); details: 635 nm fluorescence, higher = more signal
Sequence (P19883 whole entry, looked up): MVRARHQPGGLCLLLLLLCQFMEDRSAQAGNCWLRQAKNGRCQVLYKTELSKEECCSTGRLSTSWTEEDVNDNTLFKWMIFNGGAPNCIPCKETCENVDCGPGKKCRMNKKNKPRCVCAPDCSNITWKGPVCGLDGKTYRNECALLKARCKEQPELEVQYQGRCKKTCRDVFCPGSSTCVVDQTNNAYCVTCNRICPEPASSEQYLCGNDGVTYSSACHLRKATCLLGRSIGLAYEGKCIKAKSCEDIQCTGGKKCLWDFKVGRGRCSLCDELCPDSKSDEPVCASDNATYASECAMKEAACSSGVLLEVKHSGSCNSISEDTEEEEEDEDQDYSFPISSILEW
Please give only the number in your answer, with no unit.

Examples with their reported composite z-score follow.
GET /value?item= [N-]=[N+]=Nc1ccccc1[C@@H]1OC(c2ccc(OCCCO)cc2)=N[C@]1(CCS(=O)(=O)c1ccccc1)C(=O)N1CCCCC1 &field=composite z-score returns 1.29

GET /value?item= C=C(C(=O)CC[C@@H](OC(=O)c1cccnc1)c1ccc(OCCO)cc1)C(C)C &field=composite z-score returns 1.43

GET /value?item= COCCCNC(=O)[C@]1(Cc2ccccc2N=[N+]=[N-])N=C(c2ccc(OCCCO)cc2)O[C@@H]1c1ccccc1CN=[N+]=[N-] &field=composite z-score returns 1.35

GET /value?item= [N-]=[N+]=NCc1ccccc1C[C@]1(C(N)=O)N=C(c2ccc(OCCCO)cc2)O[C@H]1c1ccccc1N=[N+]=[N-] &field=composite z-score returns 0.847

GET /value?item= COCCCNC(=O)[C@@]1(C)c2ccccc2C(=O)N(Cc2ccccc2)[C@H]1c1ccc(CO)cc1 &field=composite z-score returns 0.0033

GET /value?item= COCCOC(=O)N1C(=O)[C@@]2(c3cc(C#CCC(C(=O)OC)C(=O)OC)ccc31)[C@H](c1ccccc1OCCO)N1[C@H](c3ccccc3)[C@H](c3ccccc3)OC(=O)[C@H]1[C@@H]2C(=O)Nc1nc2ccccc2s1 &field=composite z-score returns 1.16

Others:
GET /value?item= O=C1O[C@H](c2ccccc2)[C@H](c2ccccc2)N2[C@H]1[C@@H](C(=O)NC[C@H](O)c1ccccc1)[C@]1(C(=O)Nc3ccc(C#CC4=CCCCC4)cc31)[C@H]2c1ccc(O)cc1 &field=composite z-score returns 1.35

GET /value?item= COCCCNC(=O)[C@@]1(Sc2ccc(C)cc2)CC(=O)N(Cc2ccccc2)[C@@H]1c1ccc(CO)cc1 &field=composite z-score returns -0.489

GET /value?item= CCCC[C@@H]1C[C@H]1[C@@H](NC(=O)c1ccco1)c1ccccc1 &field=composite z-score returns -1.64

GET /value?item= Cc1c(NC(=O)/C(C#N)=C/C=C/c2ccccc2)c(=O)n(-c2ccccc2)n1C &field=composite z-score returns 0.58

GET /value?item= CC(C)[C@H]1COC(=O)N1C(=O)[C@H]1[C@@H](c2ccccc2)N(c2ccccc2)O[C@@H]1C &field=composite z-score returns 0.562

GET /value?item= C=C(CCCC)/C(=C/C[C@H](OC(C)=O)c1ccc(CO)o1)c1cc(C(=O)OC)ccc1OC &field=composite z-score returns 1.29

GET /value?item= O=C1C2C=CC(C(O)CCc3ccccc3)N(Nc3ccccc3)C2C(=O)N1c1ccccc1 (centres undefined) &field=composite z-score returns 0.471

GET /value?item= O=C1c2ccccc2[C@](Cc2ccccc2I)(C(=O)O)[C@H](c2ccc(CO)cc2)N1Cc1ccccc1C(F)(F)F &field=composite z-score returns 0.72
